Numbers sourced from patent US20240343803A1.

- experimentalTarget: T1, human PVRIG-his (AcroBiosystems, Cat NO. PVG-H52H4) (human, UniProt Q6DKI7 41-171, limits assumed)
- T1 construct: Bought reagent; also called human PVRIG protein
- T1 sequence (looked up): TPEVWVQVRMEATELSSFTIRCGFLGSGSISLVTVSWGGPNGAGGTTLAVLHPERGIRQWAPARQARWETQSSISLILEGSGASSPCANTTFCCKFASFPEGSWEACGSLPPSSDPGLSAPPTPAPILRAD
- experimentalDetails: ELISA, coated human PVRIG-his
Here the recorded EC50 is given for each entry.
// return numeric value only (unit: nM, not printed)

Consider the following illustrative entries.
binder	unit	EC50
PVRIG-A117 (Fc fusion, Alpaca VHH joined to human IgG1 Fc (VHH-hinge-CH2-CH3); not shown: human IgG1 hinge-CH2-CH3) EVQVVESGGGLVQAGGSLRLSCTASEHIYDLYIMGWYRQAPGKDRELVATITYTGSIYIADSVKDRFTISRGNAKNTVSLQMSGLKPEDTAVYYCNADPSGLGRKLYWGQGTQVTVSS	nM	0.0528
PVRIG-A15 (Fc fusion, Alpaca VHH joined to human IgG1 Fc (VHH-hinge-CH2-CH3); not shown: human IgG1 hinge-CH2-CH3) QVQLVESGGGLVQAGGSLRLSCVASGRTFSANTMAWFRQAPGKEREFVAYTRWTDDNTDYASYADFVKGRFTAFRDNTRNTMYLQMNRLRPEDTAVYYCAAATTRGTYYSAGDYNSWGQGTQVTVSS	nM	0.208
PVRIG-A35 (Fc fusion, Alpaca VHH joined to human IgG1 Fc (VHH-hinge-CH2-CH3); not shown: human IgG1 hinge-CH2-CH3) EVQVVESGGGLVQSGGSLRLSCAASGRTRSMYVMGWFRQAPGKEREFVGRIKWSGDTTYTSYADFVKGRFTLYGNQARNTVYLQMNSLKPEDTAVYYCNGRSRFNVINAWGTGTLVTVAS	nM	0.0543

Would you kindly look at the next entry?
Recorded EC50 for PVRIG-A60 (Fc fusion, Alpaca VHH joined to human IgG1 Fc (VHH-hinge-CH2-CH3); not shown: human IgG1 hinge-CH2-CH3) QVQLVESGGGLVQSGGSLRLSCAASGRTRSMYVMGWFRQAPGKEREFVGRIKWSGDTTYTSYADFVKGRFTLYGNQARNTVYLQMNSLKPEDAAVYYCNLRRLDGVNYWGKGTLVTVSS , please?
0.0557
